Source listed as the supplement of paper PMC10126150.

# switch fluorescence ratio per entry
Test system: ATP;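 further: ATP exposure 15 min at 22 °C before imaging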
Assay: switch fluorescence ratio, 500 uM ATP over buffer (Cy3 cluster intensity, sum of 5 cycles each) (fold (ratio)); higher = stronger signal-on switching upon ATP binding; sequences stand for … in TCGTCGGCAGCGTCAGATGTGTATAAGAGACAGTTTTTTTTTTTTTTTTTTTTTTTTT…TC
Conditions: aptamer strand: ATP DNA aptamer (quencher-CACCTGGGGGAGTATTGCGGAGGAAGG + anchor), 100 nM annealed; ATP concentration: 500 uM

| BIOPOLYMER SEQUENCE | switch fluorescence ratio |
| --- | --- |
| TTATGTTTCT | 0.972 |
| ACCTTGGCTC | 1.1 |
| TGACATCGGG | 1.01 |
| TCCTTGGGGA | 1.08 |
| TTTGATTTAC | 1 |
| TAGGGGGT | 0.985 |
| TGTACGTGGC | 1.08 |
| GAAATTGACC | 1.02 |
| AAAAATGTCC | 1.07 |
| CTGGGACGAT | 0.998 |
| ATGTTTATTT | 0.998 |
| TCTTAGGGGA | 0.998 |
| GCTTGGATCC | 0.966 |
| AGGGTGCTCC | 1.23 |
| AGGGAGGTTA | 0.972 |
| TATAGAAGT | 1 |
| CCCCCCGGGG | 1.61 |
| ATTGGGGTTG | 1 |
| TCAACGTGCT | 1 |
| TTCACATACG | 1.51 |
| TTGAAATGTT | 0.992 |
| CAGTATGTTT | 0.974 |
| GGAGGATGGG | 1 |
| CTAAACGGTG | 1.03 |
| TTGGGGGCCC | 1.01 |
| TTGACTTATA | 1.01 |
| TCCGCTTGAG | 1.36 |
| TGTTTCTCGA | 0.962 |
| GCGGGAATTG | 0.981 |
| ATGGAGGCG | 1.03 |
| TGGGTTCCCG | 0.986 |
| GTTATCTAGC | 0.994 |
| ACGCGGGGAG | 1.01 |
| CGATTGGGAC | 1.01 |
| TAAAAATAGC | 1.02 |
| TGAAATTGGA | 0.999 |
| AGGGATTCAT | 1.02 |
| AAGGACGGGG | 0.974 |
| AGTTTGGGCC | 1.02 |
| ATTTAAGGCT | 0.99 |
| TTGTGTGGTT | 0.963 |
| TTTTTATAAA | 1.01 |
| CGTGGTAAGG | 0.989 |
| AATGGTAGGG | 1 |
| TAGCGGGCTT | 0.983 |
| ACGAGGGCGT | 1.03 |
| ATTTTGGCTT | 0.963 |
| TTTTATTCGT | 1.01 |
| CAAAGAGTAG | 1 |
| CGGGGTGCAC | 1.05 |
| GGCCGGGGGG | 1.02 |
| GTAGAATGTG | 0.983 |
| CCCGAGGGGT | 1.02 |
| TCGTTCAGCG | 0.997 |
| CGTTTTTCCG | 1.08 |
| GGAGATTGTG | 0.977 |
| CGAGTTCGGC | 0.976 |
| AATTAAAGTT | 0.986 |
| CGCGGGAAGG | 1.02 |
| CTGAGGGCG | 1.05 |
| GGTGGACTTA | 1.01 |
| AGATATAGCG | 1.03 |
| AGAAGAGCTT | 1.01 |
| GATACCCATA | 0.996 |
| CTTTGGCAGA | 1.03 |
| GATCATTCTG | 0.966 |
| TGGAGATTGT | 0.943 |
| CGTAAAACTA | 1.03 |
| AAGGTTGGTC | 1 |
| TGGTTTCA | 1.02 |
| TGCTGCTACC | 1.07 |
| GATTTTCGAA | 1 |
| TGGGCTCGCC | 1 |
| GGAACCTTTT | 1.04 |
| TTAATGGTAT | 1.02 |
| GCCGGGATTG | 0.976 |
| CGGGATAGGC | 1.12 |
| AATTGTAGGC | 0.976 |
| GGGTTTCAGT | 0.95 |
| TTGAGTGTGG | 0.998 |
| TAGGTCTAGT | 0.987 |

###

Listed below: switch fluorescence ratio values for each entry.
Test system: ATP;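 further: ATP exposure 15 min at 22 °C before imaging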
Assay: switch fluorescence ratio, 500 uM ATP over buffer (Cy3 cluster intensity, sum of 5 cycles each) (fold (ratio)); higher = stronger signal-on switching upon ATP binding; sequences stand for … in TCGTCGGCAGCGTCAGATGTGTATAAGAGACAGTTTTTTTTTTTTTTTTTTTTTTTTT…TC
Settings: aptamer strand: ATP DNA aptamer (quencher-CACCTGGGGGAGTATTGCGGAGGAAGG + anchor), 100 nM annealed; ATP concentration: 500 uM

| BIOPOLYMER SEQUENCE | switch fluorescence ratio |
| --- | --- |
| GGGGCCGATA | 1.04 |
| TGCATACGGC | 1.04 |
| TTAGAAATTT | 1.01 |
| GGTGAGGCAA | 1.19 |
| CGATGTATAA | 1.01 |
| ATGGTCGTCT | 0.971 |
| TTTATCGGTA | 1.01 |
| TTGCGTGGGG | 1 |
| TGGGCAGGCA | 1 |
| ACTTTGAATG | 1.02 |
| TTGTGTAGTT | 1.01 |
| AGGGCGGGTA | 1.01 |
| TGACCCTTTT | 1 |
| ATCTTGTGGC | 0.972 |

###

switch fluorescence ratio: recorded values
Tested on: ATP;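 further: ATP exposure 15 min at 22 °C before imaging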
Test: switch fluorescence ratio, 500 uM ATP over buffer (Cy3 cluster intensity, sum of 5 cycles each) (fold (ratio)); higher = stronger signal-on switching upon ATP binding; sequences stand for … in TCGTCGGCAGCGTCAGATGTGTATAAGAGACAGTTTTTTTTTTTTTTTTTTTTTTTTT…TC
Conditions: aptamer strand: ATP DNA aptamer (quencher-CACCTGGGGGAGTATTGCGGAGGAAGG + anchor), 100 nM annealed; ATP concentration: 500 uM
REPORTED METRIC: switch fluorescence ratio

| BIOPOLYMER SEQUENCE | MEASUREMENT TARGET | NUMERIC READOUT |
| --- | --- | --- |
| TTGACGGTGG | ATP | 1.05 |
| CTATAGTCAA | ATP | 1.38 |
| AAGACGGGGT | ATP | 1.01 |
| AGGGGTAGGG | ATP | 1.01 |
| CCTTTGCCGC | ATP | 1.58 |
| TGAGAGGATC | ATP | 1.02 |
| TGTTTTTGTA | ATP | 1.07 |
| TAGCTGAGGG | ATP | 0.997 |
| ATTGCGGTCA | ATP | 1.01 |
| CGGAAAGGGG | ATP | 0.978 |
| GTTTTTAACG | ATP | 1.02 |
| ATTCTCAGTG | ATP | 1.01 |
| GAATGCATTT | ATP | 1.02 |
| AATACTACTA | ATP | 1.05 |
| TCAGGTGGGT | ATP | 1.22 |
| TGGTGAGGAG | ATP | 0.98 |
| TTAGTAAAAT | ATP | 1.01 |
| TTTTCGTGCA | ATP | 1.03 |
| TTTTTTCTCG | ATP | 1.04 |
| GAGGAAATCA | ATP | 0.988 |
| AACCCATGCT | ATP | 1.05 |
| GTGGACATTA | ATP | 1.01 |
| TTTTTTGCTG | ATP | 0.985 |
| GGTAAAAGCT | ATP | 1.03 |
| CTCTGATGGG | ATP | 0.986 |
| ATTCGAGCTG | ATP | 1 |
| GAAGGGGGAC | ATP | 1.01 |
| GCGGAGGCGG | ATP | 0.976 |
| TTGAGCTGTG | ATP | 1.02 |
| TTGACGGAGG | ATP | 0.983 |
| GATAACATAC | ATP | 1.37 |
| TTTAGTGAAC | ATP | 1.03 |

###

switch fluorescence ratio listing for selected sequences.
Tested on: ATP;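 further: ATP exposure 15 min at 22 °C before imaging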
Assay: switch fluorescence ratio, 500 uM ATP over buffer (Cy3 cluster intensity, sum of 5 cycles each) (fold (ratio)); higher = stronger signal-on switching upon ATP binding; sequences stand for … in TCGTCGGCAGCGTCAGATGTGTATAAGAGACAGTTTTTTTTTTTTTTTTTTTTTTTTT…TC
Settings: aptamer strand: ATP DNA aptamer (quencher-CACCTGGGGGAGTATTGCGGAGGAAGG + anchor), 100 nM annealed; ATP concentration: 500 uM
REPORTED METRIC: switch fluorescence ratio

| BIOPOLYMER SEQUENCE | REPORTED METRIC | NUMERIC READOUT |
| --- | --- | --- |
| AGGTCTTTCG | switch fluorescence ratio | 1 |
| TATATCTATA | switch fluorescence ratio | 1.02 |
| TAGGAGTAAT | switch fluorescence ratio | 1.01 |
| TATCAGCTGA | switch fluorescence ratio | 0.997 |
| TAGTTATCGA | switch fluorescence ratio | 0.997 |
| AGCTCATGTG | switch fluorescence ratio | 0.988 |
| GAGATTGGAG | switch fluorescence ratio | 0.989 |
| GGTTAGGGCG | switch fluorescence ratio | 1.01 |
| TTTTTGGCGT | switch fluorescence ratio | 1.02 |
| TTACGAGGCG | switch fluorescence ratio | 1 |
| AGCTCTGACG | switch fluorescence ratio | 1.02 |
| AGGGGGCCCG | switch fluorescence ratio | 1.01 |
| ATCGTTGAGG | switch fluorescence ratio | 0.986 |
| GGGTAAAGTT | switch fluorescence ratio | 1.01 |
| AGAGAGCGAA | switch fluorescence ratio | 1.01 |
| GACGATTCTT | switch fluorescence ratio | 0.98 |
